- Run description: Inhibition of ACE
pIC50: −log10 of the molar value.
pIC50 vs 4: at or above is Y, below is N.

For orientation, consider the following solved cases.
>  <Substance smiles>
CC[C@@H](C)[C@H](N)C(=O)N[C@@H](Cc1ccc(O)cc1)C(=O)N[C@H](Cc1ccc(O)cc1)P(=O)(O)O

>  <Answer label>
Y

$$$$
>  <Substance smiles>
CC[C@@H](C)[C@H](NC(C)=O)C(=O)N[C@@H](Cc1ccc(O)cc1)C(=O)N[C@H](Cc1ccc(O)cc1)C(=O)O

>  <Answer label>
N

$$$$
>  <Substance smiles>
CC[C@@H](C)[C@H](NC(C)=O)C(=O)N[C@@H](Cc1ccc(O)cc1)C(=O)N[C@@H](Cc1ccc(O)cc1)C(=O)O

>  <Answer label>
Y

$$$$
>  <Substance smiles>
C[C@H](CS)C(=O)N1CCC[C@H]1C(=O)O

>  <Answer label>
Y

$$$$
>  <Substance smiles>
CCOP(=O)(OCC)[C@H](Cc1ccc(O)cc1)NC(=O)[C@H](Cc1ccc(O)cc1)NC(=O)[C@@H](NC(C)=O)[C@H](C)CC

>  <Answer label>
N

$$$$

Is reported pIC50 greater than or equal to 4 here: `CC[C@@H](C)[C@H](N)C(=O)N[C@@H](Cc1ccc(O)cc1)C(=O)N[C@@H](Cc1ccc(O)cc1)P(=O)(O)O` Y

Is reported pIC50 greater than or equal to 4 here: `CC[C@@H](C)[C@H](N)C(=O)N[C@@H](Cc1ccc(O)cc1)C(=O)N[C@H](Cc1ccc(O)cc1)C(=O)O` N

The reported numbers originate from ChEMBL document CHEMBL1142429.
